Target: T1, human OX40 expressed on DO11.10 cells (DO11.10-hOX40) (human, UniProt P43489 29-277)
T1 sequence: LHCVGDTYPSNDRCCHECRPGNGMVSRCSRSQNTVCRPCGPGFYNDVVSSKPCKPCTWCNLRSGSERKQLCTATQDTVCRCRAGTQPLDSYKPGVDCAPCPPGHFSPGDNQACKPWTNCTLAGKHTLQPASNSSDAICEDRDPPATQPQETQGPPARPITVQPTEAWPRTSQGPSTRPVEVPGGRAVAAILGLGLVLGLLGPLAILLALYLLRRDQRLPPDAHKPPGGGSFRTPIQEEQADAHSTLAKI
Assay: cell-based or functional assay
metric_name: SEA assay (PBMC), hIL-2 max response, crosslinked (pg/mL)
Record the value in pg/mL, omitting the unit from your answer.

Exercise: Fill in reported SEA assay (PBMC), hIL-2 max response, crosslinked for this entry: FS20-22-49AA/FS30-10-3 (bispecific antibody, human IgG1, kappa, L234A L235A, V domains shown, IgG1 with LALA; also called OX40/CD137 mAb^2) VH: EVQLLESGGGLVQPGGSLRLSCAASGFTFSSYDMSWVRQAPGKGLEWVSDIDPTGSKTDYADSVKGRFTISRDNSKNTLYLQMNSLRAEDTAVYYCARDLNVYGFDYWGQGTLVTVSS VL: EIVLTQSPGTLSLSPGERATLSCRASQSVSSSYLAWYQQKPGQAPRLLIYGASSRATGIPDRFSGSGSGTDFTLTISRLEPEDFAVYYCQQSYSYPVTFGQGTKVEIKR
Key: 33900

Values were extracted from patent US20220048996A1.
